From: patent US7605163B2

Target: UniProtKB P28571
Sequence (P28571 1-651 isoform P28571-2): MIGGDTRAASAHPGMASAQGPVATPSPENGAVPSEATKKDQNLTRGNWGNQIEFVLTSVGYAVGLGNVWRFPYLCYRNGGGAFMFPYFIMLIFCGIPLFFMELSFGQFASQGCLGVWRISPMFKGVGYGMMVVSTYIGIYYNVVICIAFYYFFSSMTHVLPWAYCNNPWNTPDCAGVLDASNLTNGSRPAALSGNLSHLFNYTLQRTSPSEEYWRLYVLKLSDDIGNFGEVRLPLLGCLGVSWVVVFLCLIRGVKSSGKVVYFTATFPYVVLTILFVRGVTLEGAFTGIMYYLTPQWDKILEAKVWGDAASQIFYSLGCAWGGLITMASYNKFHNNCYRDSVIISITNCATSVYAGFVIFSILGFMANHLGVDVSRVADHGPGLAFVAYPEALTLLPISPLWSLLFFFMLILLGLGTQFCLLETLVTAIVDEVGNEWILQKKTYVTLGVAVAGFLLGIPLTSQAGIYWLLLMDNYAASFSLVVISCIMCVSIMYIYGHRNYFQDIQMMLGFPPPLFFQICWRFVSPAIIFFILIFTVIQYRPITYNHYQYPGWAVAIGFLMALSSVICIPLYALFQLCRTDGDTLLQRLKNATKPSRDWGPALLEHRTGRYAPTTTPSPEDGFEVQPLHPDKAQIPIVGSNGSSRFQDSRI
Assay: Glycine Uptake Inhibition Assay (mGlyT-1b)
Details: [3H]-glycine uptake inhibition at GlyT-1, Flp-in-CHO cells transfected with mGlyT-1b cDNA
Catalogue of IC50 values
Only the number, expressed in nM, is required.

Some compounds with known IC50 results, for comparison:
CC(C)(C)COc1ccc(S(C)(=O)=O)cc1C(=O)N1CCN(c2ccc(C#N)c(F)c2)CC1 = 21
CC(=O)c1ccc(N2CCN(C(=O)c3cc(S(C)(=O)=O)ccc3OCC3CC3)CC2)cc1F = 32

Exam item: Given the entry CC(Oc1ccc(S(C)(=O)=O)cc1C(=O)N1CCN(c2ccc(C(F)(F)F)cn2)CC1)C(F)(F)F (single isomer, unassigned) [compound 465] , report its measured IC50.
Marked response: 40

Exam item: Given the entry CC(Oc1ccc(S(C)(=O)=O)cc1C(=O)N1CCN(c2ccc(Br)cn2)CC1)C(F)(F)F (racemic) , report its measured IC50.
Marked response: 29

Exam item: Given the entry CS(=O)(=O)c1ccc(OCCC(F)(F)F)c(C(=O)N2CCN(c3ccc(C(F)(F)F)c(F)c3)CC2)c1 , report its measured IC50.
Marked response: 19

Exam item: Given the entry O=C(c1cc([N+](=O)[O-])ccc1OCC1CCC1)N1CCN(c2ccc(C(F)(F)F)cc2)CC1 , report its measured IC50.
Marked response: 25

Exam item: Given the entry CC(Oc1ccc(S(C)(=O)=O)cc1C(=O)N1CCN(c2ccc(C(F)(F)F)cc2)CC1)C1CC1 (racemic) , report its measured IC50.
Marked response: 46
